# targetOfAssay: KRAS WT (Homo sapiens (Human))
# Sequence (P01116-2 other isoform, or with tags, fused parts or gaps): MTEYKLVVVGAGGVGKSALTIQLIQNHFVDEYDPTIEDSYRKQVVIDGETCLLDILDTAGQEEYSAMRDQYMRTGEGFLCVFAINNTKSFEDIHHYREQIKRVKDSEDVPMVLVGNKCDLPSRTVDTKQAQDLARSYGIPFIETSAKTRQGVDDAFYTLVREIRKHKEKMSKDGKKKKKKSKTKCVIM
# assayProtocol: KRAS WT Biochemical Assay, BODIPY-GDP Exchange TR-FRET (Example 502; 0.06 nM KRAS WT, 15 nM GDP, 300 nM SOS1, 120-minute incubation)
# conditions: read-out: KRas HTRF IC50
pIC50: −log10 of the molar value.
Please enter y where pIC50 is greater than or equal to 7, and n where it is lower.

[
  {
    "compound": "C[C@@H]1Oc2nc(-c3cnccc3C(F)(F)F)c(F)c3nc(OC[C@]45CCN4CC(F)(F)C5)nc(c23)N2C[C@H]3CC[C@H](N3)[C@@H]12",
    "class": "n"
  },
  {
    "compound": "C[C@@H]1Oc2nc(-c3cc(N)ccc3C(F)(F)F)c(F)c3nc(OC[C@@]45CCCN4C[C@H](F)C5)nc(c23)N2C[C@H]3CC[C@H](N3)[C@@H]12",
    "class": "y"
  },
  {
    "compound": "C[C@@H]1Oc2nc(-c3cc(N)c(F)c(F)c3C(F)(F)F)c(F)c3nc(OCC45CCN4CC(F)(F)C5)nc(c23)N2C[C@H]3CC[C@H](N3)[C@@H]12 (some centres unmarked)",
    "class": "y"
  },
  {
    "compound": "C[C@@H]1Oc2nc(-c3cc(N)c(F)cc3[C@H](C)C(F)F)c(F)c3nc(OC[C@@]45CCCN4C[C@H](F)C5)nc(c23)N2C[C@H]3CC[C@H](N3)[C@@H]12 (single isomer, unassigned) [181 (isomer 1)]",
    "class": "n"
  },
  {
    "compound": "Cc1c(F)c(N)cc(-c2nc3c4c(nc(OC[C@@]56CCC(C)N5C[C@H](F)C6)nc4c2F)N2C[C@H]4CC[C@H](N4)[C@H]2[C@H](C)O3)c1C(F)(F)F (some centres unmarked)",
    "class": "y"
  },
  {
    "compound": "C[C@@H]1Oc2nc(-c3cccc4ccc(N)nc34)c(F)c3nc(OC[C@@]45CCCN4C[C@H](F)C5)nc(c23)N2C[C@H]3CC[C@H](N3)[C@@H]12",
    "class": "n"
  },
  {
    "compound": "Cc1c(F)c(N)cc(-c2nc3c4c(nc(OC[C@@]56CCCN5C[C@H](F)C6)nc4c2F)N2C[C@H]4CC[C@H](N4)[C@H]2[C@H](C)O3)c1S(C)(=O)=O",
    "class": "n"
  },
  {
    "compound": "Cc1c(F)c(N)cc(-c2nc3c4c(nc(OC[C@@]56CCCN5C[C@H](F)C6)nc4c2F)N2C[C@H]4CC[C@H](N4)[C@H]2[C@H](C)O3)c1C=O",
    "class": "y"
  },
  {
    "compound": "Cc1c(F)c(N)cc(-c2nc3c4c(nc(OC[C@@H]5CC[C@@H]6C[C@@H](F)CN65)nc4c2F)N2C[C@H]4CC[C@H](N4)[C@H]2[C@H](C)O3)c1C(F)(F)F (single isomer, unassigned) [152 (isomer 2)]",
    "class": "n"
  },
  {
    "compound": "Cc1c(F)c(N)cc(-c2nc3c4c(nc(OC[C@@H]5CC(F)(F)CN5C)nc4c2F)N2C[C@H]4CC[C@H](N4)[C@H]2[C@H](C)O3)c1C(F)(F)F",
    "class": "n"
  },
  {
    "compound": "Cc1c(F)c(N)cc(-c2nc3c4c(nc(OCC5(CN6CCOCC6)CC5)nc4c2F)N2C[C@H]4CC[C@H](N4)[C@H]2[C@H](C)O3)c1C(F)(F)F",
    "class": "y"
  },
  {
    "compound": "Cc1c(F)c(N)cc(-c2nc3c4c(nc(OCC5CCC6CN(C)C(=O)CN56)nc4c2F)N2C[C@H]4CC[C@H](N4)[C@H]2[C@H](C)O3)c1C(F)(F)F (mixture of isomers)",
    "class": "n"
  },
  {
    "compound": "Cc1cc(N)c(F)c(-c2nc3c4c(nc(OC[C@@]56CCCN5C[C@H](F)C6)nc4c2F)N2C[C@H]4CC[C@H](N4)[C@H]2[C@H](C)O3)c1I",
    "class": "y"
  },
  {
    "compound": "Cc1cc2[nH]ncc2c(-c2nc3c4c(nc(OC[C@@]56CCCN5C[C@H](F)C6)nc4c2F)N2C[C@H]4CC[C@H](N4)[C@H]2[C@H](C)O3)c1Cl",
    "class": "n"
  },
  {
    "compound": "Cc1c(F)c(N)cc(-c2nc3c4c(nc(OC[C@H]5C[C@@H]6COCCN65)nc4c2F)N2C[C@H]4CC[C@H](N4)[C@H]2[C@H](C)O3)c1C(F)(F)F (mixture of isomers) [159 (mixture)]",
    "class": "y"
  },
  {
    "compound": "Cc1c(F)c(N)cc(-c2nc3c4c(nc(OC[C@@]56CCCN5CC5(CC5(F)F)C6)nc4c2F)N2C[C@H]4CC[C@H](N4)[C@H]2[C@@H](C)O3)c1C(F)(F)F (some centres unmarked)",
    "class": "y"
  },
  {
    "compound": "Cc1c(F)c(N)cc(-c2nc3c4c(nc(OC[C@@H]5C[C@@H](F)[C@H]6CCCN56)nc4c2F)N2C[C@H]4CC[C@H](N4)[C@H]2[C@H](C)O3)c1C(F)(F)F (single isomer, unassigned) [Compound 160 (diast. 1)]",
    "class": "y"
  }
]

---

# targetOfAssay: KRAS G12D (Homo sapiens (Human), UniProt P01116, G12D)
# Sequence (P01116-2 other isoform, or with tags, fused parts or gaps G12D): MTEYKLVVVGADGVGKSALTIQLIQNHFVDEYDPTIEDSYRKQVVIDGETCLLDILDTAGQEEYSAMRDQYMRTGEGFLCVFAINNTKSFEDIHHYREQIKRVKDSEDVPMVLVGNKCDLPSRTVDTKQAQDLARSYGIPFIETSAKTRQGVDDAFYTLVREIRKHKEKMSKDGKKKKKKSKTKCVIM
# assayProtocol: KRAS G12D LoEnz Biochemical Assay, BODIPY-GDP Exchange TR-FRET (SOS1-mediated nucleotide exchange)
# conditions: read-out: KRas (G12D) GDP HTRF IC50
measuredProperty: log10(IC50) (log10 of the value in nM)

[
  {
    "compound": "Cc1cc(N)c(F)c(-c2nc3c4c(nc(OC[C@@]56CCCN5CC5(CC5(F)F)C6)nc4c2F)N2C[C@H]4CC[C@H](N4)[C@H]2[C@H](C)O3)c1C(F)(F)F (some centres unmarked) [Compound 227]",
    "measuredProperty": "log10(IC50)",
    "numericResult": -0.68
  },
  {
    "compound": "C[C@@H]1Oc2nc(-c3cc(N)cc(F)c3C(F)(F)F)c(F)c3nc(OC[C@@]45CCCN4C[C@H](F)C5)nc(c23)N2C[C@H]3CC[C@H](N3)[C@@H]12 [Compound 17]",
    "measuredProperty": "log10(IC50)",
    "numericResult": -0.88
  },
  {
    "compound": "Cc1c(F)c(N)cc(-c2nc3c4c(nc(OC[C@@]56CCCN5C[C@H](F)C6)nc4c2F)N2CCN[C@H](C)[C@@H]2[C@H](C)O3)c1C(F)(F)F (single isomer, unassigned) [234 (isomer 3)]",
    "measuredProperty": "log10(IC50)",
    "numericResult": 3.68
  },
  {
    "compound": "Cc1c(F)c(N)cc(-c2nc3c4c(nc(OC[C@@]56CCCN5C/C(=C\\F)C6)nc4c2F)N2C[C@H]4CC[C@H](N4)[C@H]2[C@H](C)O3)c1C(F)(F)F [Compound 64]",
    "measuredProperty": "log10(IC50)",
    "numericResult": -0.92
  },
  {
    "compound": "Cc1nc(N)cc(-c2nc3c4c(nc(OC[C@]56CCN5CC(F)(F)C6)nc4c2F)N2C[C@H]4CC[C@H](N4)[C@H]2[C@H](C(F)(F)F)O3)c1C(F)(F)F (single isomer, unassigned) [252 (isomer 2)]",
    "measuredProperty": "log10(IC50)",
    "numericResult": 0.77
  }
]

---

# targetOfAssay: KRAS G12D (Homo sapiens (Human), UniProt P01116, G12D)
# assayProtocol: KRAS G12D LoEnz Biochemical Assay, BODIPY-GDP Exchange TR-FRET (SOS1-mediated nucleotide exchange)
# conditions: read-out: KRas (G12D) GDP HTRF IC50
pIC50: −log10 of the molar value.
Label Fulfilled when pIC50 is at or above 9; anything below gets Not fulfilled.

[
  {
    "molecule": "Cc1c(F)c(N)cc(-c2nc3c4c(nc(OC[C@@H]5CCC6C=C(F)CCN65)nc4c2F)N2C[C@H]4CC[C@H](N4)[C@H]2[C@H](C)O3)c1C(F)(F)F (some centres unmarked) [Compound 120]",
    "class": "Fulfilled"
  },
  {
    "molecule": "C[C@@H]1Oc2nc(-c3cnccc3C(F)(F)F)c(F)c3nc(OC[C@]45CCN4CC(F)(F)C5)nc(c23)N2C[C@H]3CC[C@H](N3)[C@@H]12 [Compound 78]",
    "class": "Not fulfilled"
  },
  {
    "molecule": "Cc1c(F)c(N)cc(-c2nc3c4c(nc(OC[C@@]56CCC[C@@H]5N(C)CCC6)nc4c2F)N2C[C@H]4CC[C@H](N4)[C@H]2[C@H](C)O3)c1C(F)(F)F (single isomer, unassigned) [126 (isomer 2)]",
    "class": "Fulfilled"
  },
  {
    "molecule": "Cc1nc(N)cc(-c2nc3c4c(nc(OCC5(CN6CC7CC(F)(F)C7C6)CC5)nc4c2F)N2C[C@H]4CC[C@H](N4)[C@H]2[C@H](C)O3)c1C(F)(F)F (mixture of isomers) [Compound 264]",
    "class": "Fulfilled"
  },
  {
    "molecule": "Cc1nc(N)cc(-c2nc3c4c(nc(OC[C@@H]5CC[C@H]6COCCN65)nc4c2F)N2C[C@H]4CC[C@H](N4)[C@H]2[C@H](C)O3)c1C(F)(F)F [Compound 112]",
    "class": "Fulfilled"
  },
  {
    "molecule": "Cc1ccnc(-c2nc3c4c(nc(OC[C@]56CCN5CC(F)(F)C6)nc4c2F)N2C[C@H]4CC[C@H](N4)[C@H]2[C@H](C)O3)c1C(F)(F)F [Compound 88]",
    "class": "Not fulfilled"
  },
  {
    "molecule": "Cc1c(F)c(N)cc(-c2nc3c4c(nc(OCC5CCC6CC(F)(F)CN56)nc4c2F)N2C[C@H]4CC[C@H](N4)[C@H]2[C@H](C)O3)c1C(F)(F)F (single isomer, unassigned) [153 (isomer 2)]",
    "class": "Fulfilled"
  },
  {
    "molecule": "Cc1c(F)c(N)cc(-c2nc3c4c(nc(OC[C@@]56CCCN5C[C@H](F)[C@@H]6F)nc4c2F)N2C[C@H]4CC[C@H](N4)[C@H]2[C@H](C)O3)c1C(F)(F)F (single isomer, unassigned) [143 (isomer 3)]",
    "class": "Fulfilled"
  },
  {
    "molecule": "Cc1cc(-c2nc3c4c(nc(OC[C@@]56CCCN5C[C@H](F)C6)nc4c2F)N2C[C@H]4CC[C@H](N4)[C@H]2[C@H](C)O3)cc(N)c1F [Compound 13]",
    "class": "Not fulfilled"
  },
  {
    "molecule": "Cc1c(F)c(N)cc(-c2nc3c4c(nc(OC[C@@]56CCCN5C[C@H](F)C6)nc4c2F)N2C[C@H]4CC[C@H](N4)[C@H]2[C@@H](C(F)F)O3)c1C(F)(F)F (single isomer, unassigned) [238 (isomer 2)]",
    "class": "Not fulfilled"
  },
  {
    "molecule": "Cc1c(F)c(N)cc(-c2nc3c4c(nc(OC[C@@]56CCCN5C[C@H](F)C6)nc4c2F)N2CCN[C@@H](C)[C@H]2[C@H](C)O3)c1C(F)(F)F (single isomer, unassigned) [234 (isomer 1)]",
    "class": "Not fulfilled"
  },
  {
    "molecule": "Cc1c(F)c(N)cc(-c2nc3c4c(nc(OCC5(CN6CCOCC6)CC5)nc4c2F)N2C[C@H]4CC[C@H](N4)[C@H]2[C@H](C)O3)c1C(F)(F)F [Compound 118]",
    "class": "Fulfilled"
  },
  {
    "molecule": "Cc1c(F)c(N)cc(-c2nc3c4c(nc(OC[C@]5(CN6CC7(COC7)C6)CC5(F)F)nc4c2F)N2C[C@H]4CC[C@H](N4)[C@H]2[C@H](C)O3)c1C(F)(F)F (stereo in doubt) [165 c]",
    "class": "Fulfilled"
  },
  {
    "molecule": "Cc1nc(N)c(F)c(-c2nc3c4c(nc(OC[C@@]56CCCN5C[C@H](F)C6)nc4c2F)N2C[C@H]4CC[C@H](N4)[C@H]2[C@H](C)O3)c1C(F)(F)F [Compound 194]",
    "class": "Fulfilled"
  },
  {
    "molecule": "Cc1c(F)c(N)c(F)c(-c2nc3c4c(nc(OC[C@@]56CCCN5C/C(=C\\F)C6)nc4c2F)N2C[C@H]4CC[C@H](N4)[C@H]2[C@H](C)O3)c1C(F)(F)F [Compound 229]",
    "class": "Fulfilled"
  },
  {
    "molecule": "C[C@@H]1Oc2nc(-c3cc(N)cc(C(F)(F)F)c3C(F)(F)F)c(F)c3nc(OC[C@@]45CCCN4C[C@H](F)C5)nc(c23)N2C[C@H]3CC[C@H](N3)[C@@H]12 [Compound 115]",
    "class": "Fulfilled"
  }
]
